biological target: cyclic AMP phosphodiesterase; test: Inhibition of cyclic AMP phosphodiesterase (Dixon plot); conditions: homogenates of rat skeletal muscle; 0.31 µM cyclic AMP as substrate; estimated from Dixon plot; read-out: Apparent Ki value
pKi: −log10 of the molar value.

{"compound": "CCCCn1c(=O)n(CCC(C)O)c(=O)c2c1ncn2CC(C)=O (stereo not shown) [Example E7]", "systemTested": "cyclic AMP phosphodiesterase", "pKi": 4.89}
{"compound": "CCCCn1c(=O)n(CCC(C)=O)c(=O)c2c1ncn2CC(C)O (stereo not shown) [Example E8]", "systemTested": "cyclic AMP phosphodiesterase", "pKi": 3.80}
{"compound": "CCCCn1c(=O)n(CCC(C)O)c(=O)c2c1ncn2CC(C)O (stereo not shown) [Example E5]", "systemTested": "cyclic AMP phosphodiesterase", "pKi": 3.89}
{"compound": "CCCCn1c(=O)c2c(ncn2CC(C)O)n(CCC(C)O)c1=O (stereo not shown) [Example E6]", "systemTested": "cyclic AMP phosphodiesterase", "pKi": 4.03}
{"compound": "CCCCn1c(=O)c2c(ncn2CC(C)=O)n(CCC(C)O)c1=O (stereo not shown) [Example E9]", "systemTested": "cyclic AMP phosphodiesterase", "pKi": 4.89}
{"compound": "CC(O)CCn1c(=O)c2c(ncn2CC(C)O)n(CCC(C)O)c1=O (stereo not shown) [Example E14]", "systemTested": "cyclic AMP phosphodiesterase", "pKi": 3.09}
{"compound": "CC(=O)Cn1cnc2c1c(=O)n(CCC(C)O)c(=O)n2CCC(C)O (stereo not shown) [Example E11]", "systemTested": "cyclic AMP phosphodiesterase", "pKi": 4.09}
